System: Primary human T-cells
test summary: Primary Human T-Cell Proliferation Assay Stimulated with IL-2 (CellTiter-Glo)
Type: cell-based
setup conditions: primary human T-cell proliferation stimulated with IL-2; read-out: IC50, Example 42
pIC50: −log10 of the molar value.
Attribute: pIC50

{"columns": ["compound structure string", "target or system", "pIC50"],
 "data": [
  ["NS(=O)(=O)c1cccc(Nc2ncc(F)c(Nc3cccc(CNC(=O)C4CC4)c3)n2)c1", "Primary human T-cells", 6.89],
  ["Cc1nc(COc2ccc(Nc3nc(Nc4cccc(S(N)(=O)=O)c4)ncc3F)cc2)cs1", "Primary human T-cells", 7.04],
  ["Cc1cc(COc2ccc(Nc3nc(Nc4ccc(C)c(S(N)(=O)=O)c4)ncc3F)cc2F)no1", "Primary human T-cells", 6.23],
  ["Cc1cc(COc2ccc(Nc3nc(Nc4ccc(C)c(S(N)(=O)=O)c4)ncc3F)cc2C)no1", "Primary human T-cells", 6.00]
]}
